The measurements presented in this section are drawn from ChEMBL document CHEMBL2321805.

The entries below come with measured inhibition (INH) values attached.
Test system: HeLa
Assay: Inhibition of shiga toxin retrograde transport in human HeLa cells after 20 mins by sulfation assay relative to control
Assay type: functional
readout_label: inhibition (INH) (%)

{"molecule": "CCc1ccc(C2Nc3ccccc3C(=O)N2c2ccccc2)s1 (racemic)", "assay_target": "HeLa", "readout_label": "inhibition (INH)", "unit_descriptor": "%", "experimental_result": 13.5}
{"molecule": "Cc1ccc(C2N(C)c3ccccc3C(=O)N2c2ccccc2)s1 (racemic)", "assay_target": "HeLa", "readout_label": "inhibition (INH)", "unit_descriptor": "%", "experimental_result": 38.7}
{"molecule": "CCc1ccc(C2N(C)c3ccccc3C(=O)N2c2ccccc2)s1 (racemic)", "assay_target": "HeLa", "readout_label": "inhibition (INH)", "unit_descriptor": "%", "experimental_result": 0}
{"molecule": "Cc1ccc(C2Nc3ccccc3C(=O)N2c2ccccc2)s1 (racemic)", "assay_target": "HeLa", "readout_label": "inhibition (INH)", "unit_descriptor": "%", "experimental_result": 36.9}
{"molecule": "Cc1nc(-c2ccc(C3N(C)c4ccccc4C(=O)N3c3ccccc3)s2)cs1 (racemic)", "assay_target": "HeLa", "readout_label": "inhibition (INH)", "unit_descriptor": "%", "experimental_result": 0}
{"molecule": "Cc1nc(-c2ccc(C3Nc4ccccc4C(=O)N3c3ccccc3)s2)cs1 (racemic)", "assay_target": "HeLa", "readout_label": "inhibition (INH)", "unit_descriptor": "%", "experimental_result": 0}
